assayedSystem: human sGC (Homo sapiens)
Construct: expressed in transfected cells; host or cells: CHO-K1 (Chinese hamster ovary) cells
methodSummary: Maximum effect of sGC activation (intracellular Ca2+, Fura2-AM) in CHO-K1 cells stably expressing human sGC and mouse CNGA2
Format: cell-based
statedConditions: increase rate of sGC activity vs DMSO control, test compound 10 μmol/L, absence of ODQ, read-out: Emax (%) ODQ− (Heme-dependent)
Would you kindly list Emax at 10 µM for each of these molecules?
Answers are plain numbers, in %.

Some molecules with recorded Emax at 10 µM:
# molecule, Emax at 10 µM, %
records = [
    ("N#Cc1cccc([C@H](CN(CCCCC(=O)O)Cc2ccc(C(=O)O)cc2)OCc2ccc(CCc3ccccc3)cc2)c1", 83.4),
    ("O=C(O)CCCCN(Cc1ccc(C(=O)O)cc1)CC(OCc1ccc(CCc2ccccc2)cc1)c1cccs1 (stereo not drawn)", 114),
    ("O=C(O)CCCCN(Cc1ccc(C(=O)O)cc1)CC(OCc1cccc(CCc2ccccc2)c1)c1ccccc1 (stereo not drawn)", 110),
]

Look up Emax at 10 µM for the entries below, preserving their order.
1. CC(C)(CCN(Cc1ccc(C(=O)O)cc1)CC(OCc1ccc(CCc2ccccc2)cc1)c1ccccc1)CC(=O)O (stereo not drawn)
2. O=C(O)CCCCN(Cc1ccc(C(=O)O)cc1)CC(OCc1ccc(CCc2ccccc2)s1)c1cccc(Cl)c1 (stereo not drawn)
3. O=C(O)CCCCN(Cc1ccc(C(=O)O)cc1)CC(OCc1ccc(CCc2ccccc2)cc1)c1ccc(Cl)s1 (stereo not drawn)
4. O=C(O)CCCCN(Cc1ccc(C(=O)O)cc1)C[C@H](OCc1ccc(CCC2CCCC2)cc1)c1ccccc1

1. 96.2
2. 150
3. 187
4. 148

----------
Field: Emax at 10 µM. Provide a value for each of the compounds that follow.
assayedSystem: human sGC (Homo sapiens, UniProt Q02153)
Construct: expressed in transfected cells; host or cells: CHO-K1 (Chinese hamster ovary) cells
methodSummary: Maximum effect of sGC activation (intracellular Ca2+, Fura2-AM) in CHO-K1 cells stably expressing human sGC and mouse CNGA2
Format: cell-based
statedConditions: increase rate of sGC activity vs DMSO control, test compound 10 μmol/L, 10 μmol/L ODQ present, read-out: Emax (%) ODQ+ (Heme-independent)
Give bare numbers, in %.

Sample answers from the record:
# compound, measureUnit, Emax at 10 µM
data = [
    ("CC(C)(CCCN(Cc1ccc(C(=O)O)cc1)CC(OCc1ccc(CCc2ccccc2)cc1)c1ccccc1)C(=O)O (centres unmarked)", "%", 132),
    ("O=C(O)CCCCN(Cc1ccc(C(=O)O)cc1)CC(OCc1ccc(CCc2ccccc2)cc1)c1cccc(Cl)c1 (centres unmarked)", "%", 115),
    ("N#Cc1cccc([C@H](CN(CCCCC(=O)O)Cc2ccc(C(=O)O)cc2)OCc2ccc(CCc3ccccc3)cc2)c1", "%", 129),
    ("O=C(O)CCCCN(Cc1ccc(C(=O)O)cc1)CC(OCc1cccc(CCc2ccccc2)c1)c1ccccc1 (centres unmarked)", "%", 88.9),
    ("O=C(O)CCCCN(Cc1ccc(C(=O)O)cc1)CC(OCc1ccc(CCc2ccccc2)s1)c1ccccc1 (centres unmarked)", "%", 114),
]

Batch: Emax at 10 µM for all items listed.
1. O=C(O)CCCCN(Cc1ccc(C(=O)O)cc1)C[C@H](OCc1ccc(CCc2ccccc2)s1)c1ccccc1
2. O=C(O)CCCCN(Cc1ccc(C(=O)O)cc1)C[C@H](OCc1ccc(CCc2ccccc2)cc1F)c1ccccc1
3. O=C(O)CCCCN(Cc1ccc(C(=O)O)cc1)C[C@H](OCc1ccc(Oc2ccc(Cl)cc2)cc1)c1ccccc1
4. CC(C)(CCN(Cc1ccc(C(=O)O)cc1)CC(OCc1ccc(CCc2ccccc2)cc1)c1ccccc1)CC(=O)O (centres unmarked)

124
123
127
129

Give one value of Emax at 10 µM per listed compound.
1. O=C(O)CCCCCN(Cc1ccc(C(=O)O)cc1)CC(OCc1ccc(CCc2ccccc2)cc1)c1ccccc1 (centres unmarked)
2. O=C(O)CCCCN(Cc1ccc(C(=O)O)cc1)CC(OCc1ccc(CCc2ccccc2)cc1)c1cccs1 (centres unmarked)

[87.7, 122]

----------
assayedSystem: human sGC (Homo sapiens)
Construct: expressed in transfected cells; host or cells: CHO-K1 (Chinese hamster ovary) cells
methodSummary: Maximum effect of sGC activation (intracellular Ca2+, Fura2-AM) in CHO-K1 cells stably expressing human sGC and mouse CNGA2
Assay type: cell-based
statedConditions: increase rate of sGC activity vs DMSO control, test compound 10 μmol/L, 10 μmol/L ODQ present, read-out: Emax (%) ODQ+ (Heme-independent)
resultType: Emax at 10 µM (%)
Numbers only, in %.

# compound, numericValue
records = [
    ("Cc1cccc(C(CN(CCCCC(=O)O)Cc2ccc(C(=O)O)cc2)OCc2ccc(CCc3ccccc3)cc2)c1 (stereo not shown)", 113),
    ("O=C(O)CCCCN(Cc1ccc(C(=O)O)cc1)C[C@H](OCc1ccc(CCc2ccc(Cl)cc2)cc1)c1ccccc1", 120),
]

Dear colleague, could you send me Emax at 10 µM for each of the items below? Thanks.
1. O=C(O)CCCCN(Cc1ccc(C(=O)O)cc1)CC(OCc1ccc(CCc2ccccc2)cc1)c1ccsc1 (stereo not shown)
2. O=C(O)CCCCN(Cc1ccc(C(=O)O)cc1)C[C@H](OCc1ccc(CCc2ccccc2)cc1)c1ccccc1
3. CC(C)(C)c1cc(CO[C@@H](CN(CCCCC(=O)O)Cc2ccc(C(=O)O)cc2)c2ccccc2)cc(C(C)(C)C)c1
4. Cc1ccc(C(CN(CCCCC(=O)O)Cc2ccc(C(=O)O)c(F)c2)OCc2ccc(CCc3ccccc3)cc2)s1 (stereo not shown)

1: 110; 2: 87.7; 3: 108; 4: 114

Could you share which Emax at 10 µM value was measured for O=C(O)CCCCN(Cc1ccc(C(=O)O)cc1)CC(OCc1ccc(CCc2ccccc2)s1)c1cccc(Cl)c1 (stereo not shown) ?
132

----------
assayedSystem: human sGC (Homo sapiens)
Construct: expressed in transfected cells; host or cells: CHO-K1 (Chinese hamster ovary) cells
Sequence (Q02153 1-619): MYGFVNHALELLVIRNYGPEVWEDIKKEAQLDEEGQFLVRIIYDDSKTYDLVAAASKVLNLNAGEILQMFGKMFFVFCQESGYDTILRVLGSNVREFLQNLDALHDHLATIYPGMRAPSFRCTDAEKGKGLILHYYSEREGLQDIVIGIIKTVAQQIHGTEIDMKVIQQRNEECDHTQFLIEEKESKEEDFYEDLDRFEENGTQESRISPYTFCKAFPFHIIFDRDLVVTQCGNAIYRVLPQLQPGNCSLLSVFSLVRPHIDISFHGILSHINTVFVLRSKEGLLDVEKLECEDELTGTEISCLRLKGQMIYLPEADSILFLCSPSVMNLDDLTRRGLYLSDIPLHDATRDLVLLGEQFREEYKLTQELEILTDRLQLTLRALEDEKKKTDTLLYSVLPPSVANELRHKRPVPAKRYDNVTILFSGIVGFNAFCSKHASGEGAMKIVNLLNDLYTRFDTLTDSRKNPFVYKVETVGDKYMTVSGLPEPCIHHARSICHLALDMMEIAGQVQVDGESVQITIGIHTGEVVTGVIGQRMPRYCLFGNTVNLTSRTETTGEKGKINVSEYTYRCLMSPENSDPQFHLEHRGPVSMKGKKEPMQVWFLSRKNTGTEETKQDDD
Sequence (Q02108 1-690 partner): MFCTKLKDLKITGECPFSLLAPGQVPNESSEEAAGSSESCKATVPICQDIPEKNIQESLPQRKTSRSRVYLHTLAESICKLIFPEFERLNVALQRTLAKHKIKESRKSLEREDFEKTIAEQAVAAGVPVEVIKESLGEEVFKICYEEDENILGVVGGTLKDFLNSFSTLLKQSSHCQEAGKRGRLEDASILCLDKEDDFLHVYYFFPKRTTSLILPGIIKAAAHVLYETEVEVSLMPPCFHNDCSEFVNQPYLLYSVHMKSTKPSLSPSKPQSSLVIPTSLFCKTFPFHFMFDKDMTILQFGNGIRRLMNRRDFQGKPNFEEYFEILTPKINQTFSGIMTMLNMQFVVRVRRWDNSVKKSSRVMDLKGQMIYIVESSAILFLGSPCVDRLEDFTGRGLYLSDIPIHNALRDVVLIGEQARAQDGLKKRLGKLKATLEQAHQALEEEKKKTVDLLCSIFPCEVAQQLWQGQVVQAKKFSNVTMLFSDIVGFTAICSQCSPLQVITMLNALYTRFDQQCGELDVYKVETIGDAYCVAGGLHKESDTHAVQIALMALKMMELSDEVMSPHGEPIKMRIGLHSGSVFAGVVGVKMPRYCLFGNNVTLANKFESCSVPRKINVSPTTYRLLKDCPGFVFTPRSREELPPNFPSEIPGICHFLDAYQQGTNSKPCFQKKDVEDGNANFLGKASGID
methodSummary: Maximum effect of sGC activation (intracellular Ca2+, Fura2-AM) in CHO-K1 cells stably expressing human sGC and mouse CNGA2
Type: cell-based
statedConditions: increase rate of sGC activity vs DMSO control, test compound 10 μmol/L, absence of ODQ, read-out: Emax (%) ODQ− (Heme-dependent)
resultType: Emax at 10 µM (%)
Answers are plain numbers, in %.

Example entries and their recorded answers appear below.
# compound, numericValue
data = [
    ("O=C(O)CCCCN(Cc1ccc(C(=O)O)cc1)C[C@H](OCc1ccc(Oc2ccc(Cl)cc2)cc1)c1ccccc1", 143),
    ("O=C(O)CCCCN(Cc1ccc(C(=O)O)cc1)CC(OCc1ccc(CCc2ccccc2)cc1)c1cccc(Cl)c1 (centres unmarked)", 106),
]

Batch request: Emax at 10 µM per item, same order as input.
1. CC(C)(C)c1cccc(COC(CN(CCCCC(=O)O)Cc2ccc(C(=O)O)cc2)c2ccccc2)c1 (centres unmarked)
2. CC(C)(CCCN(Cc1ccc(C(=O)O)cc1)CC(OCc1ccc(CCc2ccccc2)cc1)c1ccccc1)C(=O)O (centres unmarked)
3. CC(C)(C)c1cc(CO[C@@H](CN(CCCCC(=O)O)Cc2ccc(C(=O)O)cc2)c2ccccc2)cc(C(C)(C)C)c1
4. O=C(O)CCCCN(Cc1ccc(C(=O)O)cc1)C[C@H](OCc1ccc(CCc2ccccc2)cc1F)c1ccccc1
5. O=C(O)CCCCN(Cc1ccc(C(=O)O)cc1)CC(OCc1ccc(CCc2ccccc2)s1)c1ccccc1 (centres unmarked)
6. CC(C)(C)c1cccc(CO[C@@H](CN(CCCCC(=O)O)Cc2ccc(C(=O)O)cc2)c2cccc(Cl)c2)c1

[103, 92.4, 161, 109, 130, 82.3]

Ref: patent US9714213B2
